This collection of values is drawn from PubChem BioAssay (Tox21).

protocol-notes: A CellTox Green Cytotoxicity Assay to monitor cytotoxicity in HepG2 cells - 32 hour (AID 1224883); also: nearly all actives have a fitted effect of over 50% in size
details: CellTox Green fluorescence; series mostly up to 76.8 µM
From the text: National Center for Advancing Translational Sciences [NCATS] NIH Chemical Genomics Center [NCGC] U.S. Environmental Protection Agency [EPA] National Institutes of Environmental Health Sciences [NIEHS] National Toxicology Program [NTP] Cell-based models are critical for drug discovery. […] Viable cells produce no appreciable increases in fluorescence. Therefore, the fluorescence signal produced by the binding interaction with dead cell DNA is proportional to cytotoxicity. […]
Records with an inconclusive call do not appear. Active and inactive are the calls of the source. Calls follow the shape of the dose curve; as a rule, active = well fitted activation curve with a large enough effect in the repeat runs; inconclusive = weak or mixed curves; inactive = flat fitted curve, though single readings scatter.
One label from this list, please: True for active, False for inactive

Inquiry: Recorded test outcome, item C=C1CC[C@H]2O[C@]2(C)CC[C@@H]2[C@@H]1CC2(C)C
Reply text: False

Inquiry: For CC(=O)Nc1ccc(N=Nc2cc(C)ccc2O)cc1 , which call appears in the assay record?
Reply text: False

Inquiry: Could you kindly confirm the outcome this assay logged for CCn1c2ccccc2c2ccccc21 ?
Reply text: False
